Listed next: entries and their corresponding growth.
# System: CAKI-1 renal
# Test Protocol: NCI-60 one-dose screen, 48 h (100 = growth as untreated, 0 = no growth, -100 = all killed)
# Settings: 10 µM
Compounds without any hit were thinned out: in the full panel of roughly 83,000, 20% have a hit. The source made the active and inactive calls. Rule for the calls: active = growth percent below 10; inactive = the rest.

Challenge: Please report growth for the following compound: `COc1ccc(/C=C2/CN(CCC#N)C/C(=C\c3ccc(OC)cc3)C2=O)cc1`
Response given: -19.4% (active)

Challenge: Please report growth for the following compound: `Nc1nc(N=Nc2ccc(O)cc2)cc(=O)[nH]1`
Response given: 91.4% (inactive)

---

# Tested on: MOLT-4 leukemia
# Test Protocol: NCI-60 one-dose screen, 48 h (100 = growth as untreated, 0 = no growth, -100 = all killed)
# Settings: 10 µM
This is part of a sample that, as a whole, favours compounds with a hit. Of some 83,000 tested, about 20% had one in any assay.
Listed next: entries and their corresponding growth.
// return numeric value only (unit: %, not printed)

Examples with their reported growth follow.
Compound | Unit Descriptor | Numeric Readout
O=C1C(c2ccccc2)C2C=CC(C2)N1O (stereo unspecified) | % | 92.5
COc1ccc(-c2nn(-c3cccc(NC(=O)Nc4ccccc4)c3)cc2-c2ccncc2)cc1Cl | % | -2.67
Cc1nc2ccc(CN(C)c3ccc(C(=O)N[C@@H](CCC(=O)O)C(=O)O)s3)cc2c(=O)[nH]1 | % | 26.2
O=C(CC(C(=O)c1ccccc1)N1CCOCC1)c1ccccc1 (stereo unspecified) | % | 45.7
COc1ccc(OC)c(NC(=O)c2sc3nc4c(cc3c2N)C(=O)CCC4)c1 | % | 93.1

Challenge: Please report growth for the following compound: `CCOC(=O)c1ccc(NC(=O)Nc2ncc(Cl)cc2Cl)cc1`
Response given: 93.2

Challenge: Please report growth for the following compound: CCOC(=O)C1(CC(C)C)CCOC1=O (stereo unspecified)
Response given: 100

Challenge: Please report growth for the following compound: `Fc1cc(C(F)(F)F)ccc1-c1cncnc1NC1CCCCCC1`
Response given: 98.1

---

# Tested on: SF-539 CNS
# Test Protocol: NCI-60 one-dose screen, 48 h (100 = growth as untreated, 0 = no growth, -100 = all killed)
# Settings: 10 µM
This is part of a sample that, as a whole, favours compounds with a hit. Of some 83,000 tested, about 20% had one in any assay.
Quantity Kind: growth (%)
// return numeric value only (unit: %, not printed)

Examples with their reported growth follow.
Compound | growth (%)
O=C(Nc1cccc(-n2cc(-c3ccncc3)c(-c3ccc(O)c(Cl)c3)n2)c1)c1ccc(Cl)c(Cl)c1 | 35.8
O=C(O)CC(Cl)C(Cl)CC(=O)O (stereo unspecified) | 99.3
Cn1c([N+](=O)[O-])cnc1/C=C1\Oc2ccc(Cl)cc2C1=O | -50.3
COc1cc(-c2cc(C(=O)N3CCN(C(=O)c4ccccc4NCc4ccco4)CC3)nc3cc(-c4ccccc4)nn23)cc(OC)c1OC | 17.8

Challenge: Please report growth for the following compound: `Cc1c(Cl)cccc1NC(=O)c1sc2nc3c(cc2c1N)C(=O)CCC3`
Response given: -40.7

Challenge: Please report growth for the following compound: `CC(=O)c1nc2ccccc2n1CCNC(N)=O`
Response given: 79.7
